Entries and their measured GI50 follow.
Tested on: U-251
Experiment: NCI tumour cell line growth inhibition, 48 h
Activity calls are given as the source filed them. No stated cut-off is given here; in the data, active = GI50 up to about 1.1 µM and inactive = higher.

| Compound | GI50 |
| --- | --- |
| Nc1nc(=O)n(C2OC(CO)C(O)C2O)c2ncc(-c3ccc(-c4ccccc4)cc3)nc12 (stereo not given) | 31.3 µM (inactive) |
| COC(=O)C1Cc2c([nH]c3ccccc23)-c2[nH]c3ccccc3c2CC(NC(C)=O)C(=O)N2CCCC2C(=O)N1 (stereo not given) | > 100 µM (inactive) |
| O=C1C=CC(=O)c2c1ccc1c3ccccc3n(Cc3ccccc3)c21 | 51.9 µM (inactive) |

# value of GI50, U-251, item O=C1C2C=CC1C1C(=O)OC(=O)C21 (stereo not given) = > 100 µM (inactive)

---

Tested on: EKVX
Experiment: NCI tumour cell line growth inhibition, 48 h
Activity calls are given as the source filed them. Rule as the data show it: active = GI50 up to about 1.1 µM and inactive = higher.
Quantity kind: GI50

| Smiles data | Quantity kind | Value observed |
| --- | --- | --- |
| COc1cccc(NC(=O)CC(=O)n2nc(-c3ccccc3)c(/N=N/c3ccc(Cl)cc3)c2-c2ccccc2)c1 | GI50 | 24 µM (inactive) |
| COC1=CC(=C(C#N)/C(=N\c2ccccc2)SC)C=C(OC)C1=O | GI50 | > 100 µM (inactive) |
| COc1cc(C(=O)Nc2cccc3ccccc23)c(Br)c(OC)c1OC | GI50 | > 100 µM (inactive) |

Sure, the documented GI50 for O=CCCn1[nH]c(=O)ccc1=O is > 100 µM (inactive)

Sure, the documented GI50 for O=C1Nc2ccccc2/C1=C\c1c(-c2ccccc2)nc2n1CCS2 is 17.7 µM (inactive)

Sure, the documented GI50 for CC(=O)O[C@H]1C(=O)[C@@]2(C)[C@H]([C@H](OC(=O)c3ccccc3)[C@]3(O)C[C@H](OC(=O)[C@H](O)[C@@H](NC(=O)c4ccccc4)c4ccc5ccccc5c4)C(C)=C1C3(C)C)[C@]1(OC(C)=O)CO[C@@H]1C[C@@H]2O is 5.35 µM (inactive)

---

Entries and their measured GI50 follow.
System: HCC 2998
Experiment: NCI tumour cell line growth inhibition, 48 h
Active and inactive are the calls of the source. Rule as the data show it: active = GI50 up to about 1.1 µM and inactive = higher.

| Compound | GI50 |
| --- | --- |
| O=C(N/N=C\c1cccc2ccccc12)Nc1ccc([N+](=O)[O-])cc1 | 15.8 µM (inactive) |
| COC1CCN(N(C)C)O1 (stereo unspecified) | > 100 µM (inactive) |
| N#CC1C(=O)NC23CCCCC2C1c1ccccc1O3 (stereo unspecified) | > 100 µM (inactive) |
| [N-]=[N+]=NC(c1cn(C2CC(O)C(CO)O2)c(=O)[nH]c1=O)C(Cl)Br (stereo unspecified) | > 100 µM (inactive) |

Sure, the documented GI50 for C=C(C)[C@@H]1CC=C(CO)CC1 [PERILLYL ALCOHOL] is 753 µM (inactive)

Sure, the documented GI50 for O=C1C=Cc2ncccc2C1=O is > 48.1 µM (inactive)

---

Entries and their measured GI50 follow.
System: DMS-114
Assay: NCI tumour cell line growth inhibition, 48 h
Activity calls are given as the source filed them. Rule as the data show it: active = GI50 up to about 1.1 µM and inactive = higher.

Sample records with GI50:
| Smiles data | Value observed |
| --- | --- |
| Nc1n[nH]c(CCCCCCCc2nnc(N)[nH]2)n1 | > 100 µM (inactive) |
| CCOC(=O)NC(=O)c1cn(CC(=O)NCC(=O)NCC(=O)N2CCN(CCn3c(C)nc(C(N)=O)c3N)CC2)c(=O)[nH]c1=O | > 100 µM (inactive) |
| Nc1cc(S(=O)(=O)O)cc2cc(S(=O)(=O)O)c(/N=N/c3ccc(-c4ccc(/N=N/c5c(S(=O)(=O)O)cc6cc(S(=O)(=O)O)cc(N)c6c5O)cc4)cc3)c(O)c12 | > 100 µM (inactive) |
| Sc1nnc(COc2ccc(Cl)cc2)[nH]1 | > 100 µM (inactive) |
| COc1ccc(/C(Cl)=C(\C=O)c2ccc(OC)cc2)cc1 | > 100 µM (inactive) |

Sure, the documented GI50 for NC(=O)n1ncc(Cl)c(Cl)c1=O is > 100 µM (inactive)

Sure, the documented GI50 for CCc1ccc(Nc2cc(=O)[nH]c(=S)n2C)cc1 is > 100 µM (inactive)

Sure, the documented GI50 for CC1(C)CC(=O)C(C(=O)C(=O)NC2=C(Cl)C(=O)c3ccccc3C2=O)C(=O)C1 is 67.9 µM (inactive)

Sure, the documented GI50 for C=C(C)[C@@H]1CC=C(CO)CC1 is 124 µM (inactive)

Sure, the documented GI50 for c1ccc(-c2nc3ccccc3nc2SCc2cccnc2)cc1 is > 100 µM (inactive)

---

System: HOP-92
Test: NCI tumour cell line growth inhibition, 48 h
Active and inactive are the calls of the source. Cut-off read from the data, not from the text of the source: active = GI50 up to about 1.1 µM and inactive = higher.
Quantity kind: GI50

Sample records with GI50:
| Compound | GI50 |
| --- | --- |
| COc1ccccc1/C=C/c1cnccn1 | > 10 µM (inactive) |
| Cc1cc2c(cc1Cl)SC(NS(=O)(=O)c1ccc(Cl)cc1)=NS2(=O)=O | 16 µM (inactive) |
| CCN1C(=O)C(=Cc2ccc(-c3ccccc3)cc2)C(=O)N(CC)C1=S | > 100 µM (inactive) |

Sure, the documented GI50 for CC(C)(C)C(=O)C(CC(=O)c1ccccc1)C(=O)C(C)(C)C is 44.7 µM (inactive)

Sure, the documented GI50 for CC(=O)Nc1cc(C(=O)Nc2cc(C(=O)Nc3cc(C(=O)Nc4cc(C(=O)Nc5cc(C(=O)NCCC(=O)NCCCN(C)C)n(C)c5)n(C)c4)n(C)c3)n(C)c2)n(C)c1 is 33.5 µM (inactive)

Sure, the documented GI50 for C=C(C)[C@@H]1CC=C(CO)CC1 is 117 µM (inactive)

Sure, the documented GI50 for CC(=O)OC1CCCn2c1nc1c2C(=O)C(C)=C(N2CC2)C1=O (centres undefined) is 27.8 µM (inactive)

Sure, the documented GI50 for COc1cccc(NC(=O)CC(=O)n2nc(-c3ccccc3)c(/N=N/c3ccc(Cl)cc3)c2-c2ccccc2)c1 is 18.7 µM (inactive)

Sure, the documented GI50 for O=C1CCN2c3ccccc3[C@H]3Cc4cccc(c4[C@@H]2C3)CCO1 is 31 µM (inactive)

---

System: SF-295
Experiment: NCI tumour cell line growth inhibition, 48 h
Active and inactive are the calls of the source. Cut-off read from the data, not from the text of the source: active = GI50 up to about 1.1 µM and inactive = higher.
// classify into Y (active), N (inactive)

| Compound | Label value |
| --- | --- |
| C[C@]12Cc3cnc(-c4ccccc4)nc3C[C@@H]1CC[C@@H]1[C@@H]2CC[C@@]2(C)[C@H]1CC[C@]2(C)O | N |
| O=C(c1ccccc1)c1ccc(COc2ccc(C(c3c(O)c4ccccc4oc3=O)c3c(O)c4ccccc4oc3=O)cc2)cc1 | N |
| CC(=O)OC1CCCn2c1nc1c2C(=O)C(C)=C(N2CC2)C1=O (stereo not drawn) | Y |
| CCOc1ccc(NC(=O)C(=O)NO)cc1 | N |
| CC1=NN(C(=O)CC(=O)Nc2cccc(C)c2)C(=O)C1/N=N\c1ccc(S(=O)(=O)c2ccc(/N=N/C3C(=O)N(C(=O)CC(=O)Nc4cccc(C)c4)N=C3C)cc2)cc1 (stereo not drawn) | N |
| COc1cc2oc3c(c(=O)c2c(O)c1/C=C/C(C)C)CCC(C)(C)Oc1cc(O)ccc1-3 | N |
| C=C1c2[nH]c3ccccc3c2CC(C(=O)O)N1C(O)c1ccc(S(=O)(=O)O)cc1 (stereo not drawn) | N |

Note: attention shifts to another entry.
Recorded test call requested for NC(=O)N1N=C2c3ccccc3SC[C@H]2[C@@H]1c1ccccc1
N

---

Tested on: SF-539
Experiment: NCI tumour cell line growth inhibition, 48 h
Calls of active or inactive are those of the source. Rule as the data show it: active = GI50 up to about 1.1 µM and inactive = higher.
Entries and their measured GI50 follow.

| Compound | Target of assay | GI50 |
| --- | --- | --- |
| O=C1NC(=S)N/C1=C/c1c(-c2ccccc2)[nH]c2ccccc12 | SF-539 | 17.4 µM (inactive) |
| COC(=O)c1cc(OC(C)=O)c2c(OC)ccc(OC)c2c1 | SF-539 | > 100 µM (inactive) |
| CS/C(C)=N/OC(=O)NCCCCNc1ccc(N=[N+]=[N-])cc1 | SF-539 | 50.5 µM (inactive) |

Sure, the documented GI50 for COC(=O)c1ccccc1NC(=O)C(=O)NNC(=O)c1ccncc1 is > 100 µM (inactive)

Sure, the documented GI50 for CC1=CC(=O)N(n2c(Cc3ccc(Cl)cc3)n[nH]c2=O)C1=O is 39.1 µM (inactive)

Sure, the documented GI50 for Cc1[nH]nc2c1C(=O)C=C(N(CCO)c1ccccc1)C2=O is > 100 µM (inactive)

Sure, the documented GI50 for CC1(C)OC[C@@H](/C=C\CCO[Si](c2ccccc2)(c2ccccc2)C(C)(C)C)N1C(=O)c1ccccc1 is 18.3 µM (inactive)

Sure, the documented GI50 for NC1=NC(Cn2nc(-c3ccccc3)c3ccccc3c2=O)=NNC(=O)N1 is > 100 µM (inactive)

Sure, the documented GI50 for O=C1CCN(CCC(F)(F)C(F)(F)C(F)(F)C(F)(F)F)C(=S)N1 is > 100 µM (inactive)
